Form: system (mTORC1 (Homo sapiens, UniProt P42345)), quantity (pIC50), values below.
pIC50: −log10 of the molar value.

Sample answers from the record:
COc1nc(N)nc(N2CCOc3ccc(-c4cnc5sc(N)nc5c4)cc3C2)c1C [Compound 67]; 6.30 to 7.00
CC(C)c1c(Br)nc(N)nc1N1CCOc2ccc(-c3cnc4sc(N)nc4c3)cc2C1 [Compound 19]; ≥ 7.00
COC(=O)Cc1c(C)nc(CN(C)C)nc1N1CCOc2ccc(-c3cnc4sc(N)nc4c3)cc2C1 [Compound 14]; 6.30 to 7.00
Cc1nc2c(c(N3CCOc4ccc(-c5cnc6sc(N)nc6c5)cc4C3)n1)CC(C)(C)CC2 [Compound 59]; ≥ 7.00
Cc1nc(N)nc(N2CCOc3ccc(-c4cnc5sc(N)nc5c4)cc3C2)c1-c1ccccc1 [Compound 39]; ≥ 7.00
Cc1nc(CN(C)C)nc(N2CCOc3ccc(-c4cnc5sc(N)nc5c4)cc3C2)c1Br [Compound 64]; 5.60 to 6.30

[Q] Item CC[C@H]1CCc2c(nc(N)nc2N2CCOc3ccc(-c4cnc5sc(N)nc5c4)cc3C2)C1 [Compound 56] has what recorded pIC50?
[A] ≥ 7.00

[Q] Item: CC1=CC(C)(C)Cc2c1nc(N)nc2N1CCOc2ccc(-c3cnc4sc(N)nc4c3)cc2C1 [Compound 97]
[A] ≥ 7.00

[Q] Item: Cc1nc(CN(C)C)nc(N2CCOc3ccc(-c4cnc5sc(N)nc5c4)cc3C2)c1C(C)C [Compound 55]
[A] ≥ 7.00
